Values from patent US20120190687A1

methodDescription: logP by reversed-phase HPLC (EEC Directive 79/831 Annex V.A8)
Assay type: physicochemical
experimentalConditions: * LC-MS, acidic range, pH 2.7, 0.1% aqueous formic acid / acetonitrile
Recorded measurements of log P, one per entry

INSERT INTO results (molecule, observedresult) VALUES
  ('COc1nccnc1-n1nc(C(F)(F)C(F)F)c(-c2cc(Cl)cc(C(F)(F)F)c2)c1N', '4.05*');

Looking up COc1nccnc1-n1nc(C(F)(F)F)c(-c2cc(Br)c3c(c2)OCCO3)c1N , I see its log P listed as 3.09*

Looking up COc1nccnc1-n1nc(C(F)(F)F)c(-c2ccc(N(C)C)c(Cl)c2)c1N , I see its log P listed as 3.19*

Looking up C[S+]([O-])c1nccnc1-n1nc(C(F)(F)F)c(-c2cc(Cl)cc(C(F)(F)F)c2)c1N (centres unmarked) , I see its log P listed as 3.29*

Looking up COc1cc(-c2c(C(F)(F)C(F)F)nn(-c3nccnc3OC)c2N)cc(C(F)(F)F)c1OC , I see its log P listed as 3.58*

Looking up CNc1c(-c2cc(Cl)cc(C(F)(F)F)c2)c(C(F)(F)F)nn1-c1nccnc1OC , I see its log P listed as 4.51*

Looking up Nc1c(-c2ccc(Cl)c(Cl)c2)c(C(F)(F)F)nn1-c1nccnc1Cl , I see its log P listed as 4.02*

Looking up Nc1c(-c2cc(Cl)cc(C(F)(F)F)c2)c(C(F)(F)F)nn1-c1cncc(Cl)n1 , I see its log P listed as 5.26*

###

Recorded measurements of log P, one per entry
methodDescription: logP by reversed-phase HPLC (EEC Directive 79/831 Annex V.A8)
Assay type: physicochemical
experimentalConditions: * LC-MS, acidic range, pH 2.7, 0.1% aqueous formic acid / acetonitrile

The examples below pair each entry with its known result.
INSERT INTO measurements (givensmiles, observedresult) VALUES
  ('COc1nccnc1-n1nc(C(F)(F)F)c(-c2cc(Cl)c3c(c2)OCCO3)c1N', '3.02*'),
  ('COc1nccnc1-n1nc(C(F)(F)C(F)(F)F)c(-c2cc(F)cc(C(F)(F)F)c2)c1N', '4.23*'),
  ('COc1nccnc1-n1nc(C(F)(F)F)c(-c2cc(F)c(OC)c(Cl)c2)c1N', '3.47*');

Looking up CCOc1nccnc1-n1nc(C(F)(F)F)c(-c2cc(Cl)cc(C(F)(F)F)c2)c1N , I see its log P listed as 4.47*

Looking up COc1nccnc1-n1nc(C(F)(F)C(F)(F)F)c(-c2cc(Cl)cc(C(F)(F)F)c2)c1N , I see its log P listed as 4.58*

Looking up COc1nccnc1-n1nc(C(F)(F)C(F)F)c(-c2cc(Cl)c3c(c2)CCO3)c1N , I see its log P listed as 3.22*

Looking up CCOc1cc(-c2c(C(F)(F)F)nn(-c3nccnc3OC)c2N)cc(Br)c1OCC(F)(F)F , I see its log P listed as 4.3*

Looking up CC(C)Oc1nccnc1-n1nc(C(F)(F)F)c(-c2cc(Cl)cc(C(F)(F)F)c2)c1N , I see its log P listed as 4.84*

###

methodDescription: logP by reversed-phase HPLC (EEC Directive 79/831 Annex V.A8)
Format: physicochemical
experimentalConditions: reversed-phase HPLC column; * LC-MS, acidic range, pH 2.7, 0.1% aqueous formic acid / acetonitrile; read-out: log P
propertyName: chromatographic logP

INSERT INTO results (givensmiles, propertyname, observedresult) VALUES
  ('COc1cc(-c2c(C(F)(F)F)nn(-c3nccnc3OC)c2N)cc(C(F)(F)F)c1', 'chromatographic logP', 3.63),
  ('COc1nccnc1-n1nc(C(F)(F)F)c(-c2cc(Cl)cc(C(F)(F)F)c2)c1N(C)C', 'chromatographic logP', 5.11);
